src = patent US7855290B2

biological target: HGFR (Homo sapiens, UniProt P08581); construct: endogenous in cells; test: Inhibitory activity against the HGFR autophosphorylation using ELISA (MKN-45 cells); details: 1 hr with test substance
Sequence (P08581 25-1390): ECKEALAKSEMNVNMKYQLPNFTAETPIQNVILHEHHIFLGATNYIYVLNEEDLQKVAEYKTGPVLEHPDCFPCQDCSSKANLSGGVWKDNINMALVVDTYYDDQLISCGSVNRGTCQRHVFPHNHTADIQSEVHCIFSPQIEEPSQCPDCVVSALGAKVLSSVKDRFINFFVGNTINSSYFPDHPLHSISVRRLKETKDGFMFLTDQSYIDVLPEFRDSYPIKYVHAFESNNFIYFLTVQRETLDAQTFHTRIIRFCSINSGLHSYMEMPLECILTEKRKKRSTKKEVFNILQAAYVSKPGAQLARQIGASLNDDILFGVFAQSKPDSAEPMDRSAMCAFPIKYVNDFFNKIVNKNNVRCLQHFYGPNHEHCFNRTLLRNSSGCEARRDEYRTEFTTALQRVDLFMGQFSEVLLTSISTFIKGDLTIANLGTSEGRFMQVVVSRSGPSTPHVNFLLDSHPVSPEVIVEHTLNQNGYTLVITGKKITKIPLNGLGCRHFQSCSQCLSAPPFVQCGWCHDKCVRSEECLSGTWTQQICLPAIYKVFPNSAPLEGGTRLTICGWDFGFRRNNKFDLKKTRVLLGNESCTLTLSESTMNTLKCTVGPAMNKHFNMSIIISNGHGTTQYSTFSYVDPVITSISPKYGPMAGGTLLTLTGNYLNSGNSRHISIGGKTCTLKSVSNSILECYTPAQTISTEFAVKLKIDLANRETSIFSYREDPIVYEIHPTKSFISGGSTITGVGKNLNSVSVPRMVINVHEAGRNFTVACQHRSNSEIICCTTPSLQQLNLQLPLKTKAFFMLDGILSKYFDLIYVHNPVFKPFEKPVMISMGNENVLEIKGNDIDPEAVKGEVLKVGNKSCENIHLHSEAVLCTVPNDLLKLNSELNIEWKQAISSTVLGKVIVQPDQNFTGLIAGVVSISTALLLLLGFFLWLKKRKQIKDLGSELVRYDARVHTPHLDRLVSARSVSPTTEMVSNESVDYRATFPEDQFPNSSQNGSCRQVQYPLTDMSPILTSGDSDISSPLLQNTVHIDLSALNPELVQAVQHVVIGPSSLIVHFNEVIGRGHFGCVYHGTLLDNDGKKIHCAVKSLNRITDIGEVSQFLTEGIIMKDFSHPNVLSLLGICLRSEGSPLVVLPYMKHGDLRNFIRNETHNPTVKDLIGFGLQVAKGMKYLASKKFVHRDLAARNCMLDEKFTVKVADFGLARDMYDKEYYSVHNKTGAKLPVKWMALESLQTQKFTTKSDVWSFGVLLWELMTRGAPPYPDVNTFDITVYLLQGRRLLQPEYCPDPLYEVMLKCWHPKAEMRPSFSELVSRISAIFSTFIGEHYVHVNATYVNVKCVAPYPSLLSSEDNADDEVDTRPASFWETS
pIC50: −log10 of the molar value.
Catalogue of pIC50 readings, one per entry.

{"Molecule": "O=C(Nc1cc(Oc2ccc(NC(=O)C3(C(=O)Nc4ccc(F)cc4)CC3)cc2F)ccn1)N1CCCC1 [Example 66]", "Subject of test": "HGFR (Homo sapiens, UniProt P08581)", "pIC50": 7.89}
{"Molecule": "CN(C)[C@@H]1CCN(C(=O)Nc2cc(Oc3ccc(NC(=O)C4(C(=O)Nc5ccc(F)cc5)CC4)cc3F)ccn2)C1 [Example 36]", "Subject of test": "HGFR (Homo sapiens, UniProt P08581)", "pIC50": 7.82}
{"Molecule": "O=C(Nc1cc(Oc2ccc(NC(=O)C3(C(=O)Nc4ccc(F)cc4)CC3)c(F)c2)ccn1)N1CC(CO)C1 [Example 75]", "Subject of test": "HGFR (Homo sapiens, UniProt P08581)", "pIC50": 7.89}
{"Molecule": "CN1CCC(N(C)C(=O)Nc2cc(Oc3ccc(NC(=O)C4(C(=O)Nc5ccc(F)cc5)CC4)cc3)ccn2)CC1 [Example 12]", "Subject of test": "HGFR (Homo sapiens, UniProt P08581)", "pIC50": 7.40}
{"Molecule": "COC1CN(C(=O)Nc2cc(Oc3ccc(NC(=O)C4(C(=O)Nc5ccc(F)cc5)CC4)c(F)c3)ccn2)C1 [Example 78]", "Subject of test": "HGFR (Homo sapiens, UniProt P08581)", "pIC50": 7.82}
{"Molecule": "CN1CCC(N2CCN(C(=O)Nc3cc(Oc4ccc(NC(=O)C5(C(=O)Nc6ccc(F)cc6)CC5)cc4F)ccn3)CC2)CC1 [Example 19]", "Subject of test": "HGFR (Homo sapiens, UniProt P08581)", "pIC50": 7.64}
{"Molecule": "CN(C)CC1CN(C(=O)Nc2cc(Oc3cc(F)c(NC(=O)C4(C(=O)Nc5ccc(F)cc5)CC4)cc3F)ncn2)C1 [Example 98]", "Subject of test": "HGFR (Homo sapiens, UniProt P08581)", "pIC50": 7.77}
{"Molecule": "CN(C)[C@@H]1CCN(C(=O)Nc2cc(Oc3ccc(NC(=O)C4(C(=O)Nc5ccc(F)cc5)CC4)cc3)ccn2)C1 [Example 42]", "Subject of test": "HGFR (Homo sapiens, UniProt P08581)", "pIC50": 7.38}

----------
Listed next: entries and their corresponding pIC50.
target: HGFR (Homo sapiens); construct: endogenous in cells; test: Inhibitory activity against the HGFR autophosphorylation using ELISA (MKN-45 cells); settings: 1 hr with test substance
pIC50: −log10 of the molar value.

{"Compound": "O=C(Nc1cc(Oc2ccc(NC(=O)C3(C(=O)Nc4ccc(F)cc4)CC3)cc2F)ccn1)N1CCC(CN2CCC2)CC1 [Example 26]", "pIC50": 8.08}
{"Compound": "CN1CCC(N(C)C(=O)Nc2cc(Oc3ccc(NC(=O)C4(C(=O)Nc5ccccc5)CC4)c(F)c3)ccn2)CC1 [Example 48]", "pIC50": 7.92}
{"Compound": "O=C(Nc1cc(Oc2ccc(NC(=O)C3(C(=O)Nc4ccc(F)cc4)CC3)c(F)c2)ccn1)N1CCC1 [Example 61]", "pIC50": 8.10}
{"Compound": "O=C(Nc1cc(Oc2cc(F)c(NC(=O)C3(C(=O)Nc4ccc(F)cc4)CC3)cc2F)ncn1)N1CC(O)C1 [Example 97]", "pIC50": 7.85}
{"Compound": "O=C(Nc1cc(Oc2ccc(NC(=O)C3(C(=O)Nc4ccc(F)cc4)CC3)cc2F)ccn1)N1CCOCC1 [Example 67]", "pIC50": 8.00}
{"Compound": "O=C(Nc1cc(Oc2cc(F)c(NC(=O)C3(C(=O)Nc4ccc(F)cc4)CC3)cc2F)ccn1)N1CCC1 [Example 90]", "pIC50": 7.96}
{"Compound": "CN1CCC(N(C)C(=O)Nc2cc(Oc3ccc(NC(=O)C4(C(=O)Nc5ccc(F)cc5)CC4)cc3F)ncn2)CC1 [Example 33]", "pIC50": 7.60}
{"Compound": "O=C(Nc1cc(Oc2cc(F)c(NC(=O)C3(C(=O)Nc4ccc(F)cc4)CC3)cc2F)ccn1)N1CCC(O)CC1 [Example 105]", "pIC50": 8.07}
{"Compound": "O=C(Nc1cc(Oc2ccc(NC(=O)C3(C(=O)Nc4ccc(F)cc4)CC3)cc2F)ccn1)N1CCC(N2CCCC2)CC1 [Example 10]", "pIC50": 7.68}
{"Compound": "O=C(Nc1cc(Oc2ccc(NC(=O)C3(C(=O)Nc4ccc(F)cc4)CC3)cc2)ccn1)N1CCN(CCN2CCC2)CC1 [Example 28]", "pIC50": 7.37}
{"Compound": "O=C(Nc1cc(Oc2ccc(NC(=O)C3(C(=O)Nc4ccc(F)cc4)CC3)c(F)c2)ccn1)N1CCC(O)CC1 [Example 82]", "pIC50": 7.66}
{"Compound": "CN1CCN(C2CCN(C(=O)Nc3cc(Oc4cc(F)c(NC(=O)C5(C(=O)Nc6ccc(F)cc6)CC5)cc4F)ccn3)CC2)CC1 [Example 92]", "pIC50": 7.89}
{"Compound": "O=C(Nc1cc(Oc2ccc(NC(=O)C3(C(=O)Nc4ccc(F)cc4)CC3)cc2F)ccn1)N1CCC1 [Example 65]", "pIC50": 8.00}
{"Compound": "O=C(Nc1cc(Oc2ccc(NC(=O)C3(C(=O)Nc4ccc(F)cc4)CC3)cc2F)ccn1)N1CC(O)C1 [Example 80]", "pIC50": 7.85}

----------
Test system His6-HGFR (HGFR cytoplasmic domain) (Homo sapiens, UniProt P08581), pIC50 listed for each of the compounds.
pIC50: −log10 of the molar value.
Test readout: pIC50

{"Sample smiles": "O=C(Nc1cc(Oc2ccc(NC(=O)C3(C(=O)Nc4ccc(F)cc4)CC3)cc2F)ccn1)N1CCC(CO)CC1", "Test readout": "pIC50", "Experimental result": 7.82}
{"Sample smiles": "CN(C)C1CN(C2CCN(C(=O)Nc3cc(Oc4ccc(NC(=O)C5(C(=O)Nc6ccccc6)CC5)c(F)c4)ccn3)CC2)C1", "Test readout": "pIC50", "Experimental result": 6.92}
{"Sample smiles": "O=C(Nc1cc(Oc2ccc(NC(=O)C3(C(=O)Nc4ccc(F)cc4)CC3)cc2)ccn1)N1CCC(CN2CCCC2)CC1", "Test readout": "pIC50", "Experimental result": 7.20}
{"Sample smiles": "O=C(Nc1cc(Oc2ccc(NC(=O)C3(C(=O)Nc4ccc(F)cc4)CC3)c(F)c2)ccn1)N1CC(N2CCC2)C1", "Test readout": "pIC50", "Experimental result": 6.98}
{"Sample smiles": "O=C(Nc1cc(Oc2ccc(NC(=O)C3(C(=O)Nc4ccc(F)cc4)CC3)c(F)c2)ccn1)N1CCC(N2CCNCC2)CC1", "Test readout": "pIC50", "Experimental result": 6.92}
{"Sample smiles": "COC1CN(C(=O)Nc2cc(Oc3ccc(NC(=O)C4(C(=O)Nc5ccc(F)cc5)CC4)c(F)c3)ccn2)C1", "Test readout": "pIC50", "Experimental result": 7.85}
{"Sample smiles": "CN1CCC(N(C)C(=O)Nc2cc(Oc3ccc(NC(=O)C4(C(=O)Nc5ccc(F)cc5)CC4)cc3F)ccn2)CC1", "Test readout": "pIC50", "Experimental result": 7.18}
{"Sample smiles": "CN1CCC(N(C)C(=O)Nc2cc(Oc3ccc(NC(=O)C4(C(=O)NC5CCCC5)CC4)c(F)c3)ccn2)CC1", "Test readout": "pIC50", "Experimental result": 6.80}
{"Sample smiles": "O=C(Nc1cc(Oc2ccc(NC(=O)C3(C(=O)Nc4ccc(F)cc4)CC3)c(F)c2)ccn1)N1CCC(N2CCCC2)CC1", "Test readout": "pIC50", "Experimental result": 7.35}
{"Sample smiles": "CN1CCN(C2CCN(C(=O)Nc3cc(Oc4cc(F)c(NC(=O)C5(C(=O)Nc6ccc(F)cc6)CC5)cc4F)ccn3)CC2)CC1", "Test readout": "pIC50", "Experimental result": 7.33}
{"Sample smiles": "O=C(Nc1cc(Oc2cc(F)c(NC(=O)C3(C(=O)Nc4ccc(F)cc4)CC3)cc2F)ccn1)N1CCC1", "Test readout": "pIC50", "Experimental result": 7.92}
{"Sample smiles": "CN(C)CC1CN(C(=O)Nc2cc(Oc3ccc(NC(=O)C4(C(=O)Nc5ccc(F)cc5)CC4)c(F)c3)ccn2)C1", "Test readout": "pIC50", "Experimental result": 7.24}
{"Sample smiles": "CN1CC(N2CCN(C(=O)Nc3cc(Oc4ccc(NC(=O)C5(C(=O)Nc6ccc(F)cc6)CC5)c(F)c4)ccn3)CC2)C1", "Test readout": "pIC50", "Experimental result": 7.32}
{"Sample smiles": "CN1CCN(C2CCN(C(=O)Nc3cc(Oc4ccc(NC(=O)C5(C(=O)Nc6ccccc6)CC5)c(F)c4)ccn3)CC2)CC1", "Test readout": "pIC50", "Experimental result": 7.19}
{"Sample smiles": "CN(C)C1CN(C2CCN(C(=O)Nc3cc(Oc4ccc(NC(=O)C5(C(=O)Nc6ccc(F)cc6)CC5)c(F)c4)ccn3)CC2)C1", "Test readout": "pIC50", "Experimental result": 7.22}
{"Sample smiles": "CN(C)CCN1CCC(N(C)C(=O)Nc2cc(Oc3ccc(NC(=O)C4(C(=O)Nc5ccc(F)cc5)CC4)c(F)c3)ccn2)CC1", "Test readout": "pIC50", "Experimental result": 7.07}
{"Sample smiles": "CN(C)[C@@H]1CCN(C(=O)Nc2cc(Oc3ccc(NC(=O)C4(C(=O)Nc5ccc(F)cc5)CC4)cc3F)ccn2)C1", "Test readout": "pIC50", "Experimental result": 7.34}
{"Sample smiles": "O=C(Nc1cc(Oc2ccc(NC(=O)C3(C(=O)Nc4ccc(F)cc4)CC3)cc2)ccn1)N1CCN(CCN2CCC2)CC1", "Test readout": "pIC50", "Experimental result": 7.14}
{"Sample smiles": "O=C(Nc1cc(Oc2ccc(NC(=O)C3(C(=O)Nc4ccc(F)cc4)CC3)cc2F)ccn1)N1CCC1", "Test readout": "pIC50", "Experimental result": 7.82}
{"Sample smiles": "O=C(Nc1cc(Oc2ccc(NC(=O)C3(C(=O)Nc4ccc(F)cc4)CC3)c(F)c2)ccn1)N1CCCC1", "Test readout": "pIC50", "Experimental result": 7.70}
{"Sample smiles": "O=C(Nc1cc(Oc2ccc(NC(=O)C3(C(=O)Nc4ccc(F)cc4)CC3)c(F)c2)ccn1)N1CCC(CN2CCC2)CC1", "Test readout": "pIC50", "Experimental result": 7.28}
{"Sample smiles": "CN1CCC(N(C)C(=O)Nc2cc(Oc3ccc(NC(=O)C4(C(=O)Nc5ccccc5F)CC4)c(F)c3)ccn2)CC1", "Test readout": "pIC50", "Experimental result": 6.74}
{"Sample smiles": "CN(C)C1CN(C(=O)Nc2cc(Oc3ccc(NC(=O)C4(C(=O)Nc5ccc(F)cc5)CC4)c(F)c3)ccn2)C1", "Test readout": "pIC50", "Experimental result": 7.35}
{"Sample smiles": "O=C(Nc1cc(Oc2ccc(NC(=O)C3(C(=O)Nc4ccc(F)cc4)CC3)c(F)c2)ccn1)N1CCC(CO)CC1", "Test readout": "pIC50", "Experimental result": 7.77}
{"Sample smiles": "CN(C)C1CN(C2CCN(C(=O)Nc3cc(Oc4ccc(NC(=O)C5(C(=O)Nc6ccc(F)cc6)CC5)cc4)ccn3)CC2)C1", "Test readout": "pIC50", "Experimental result": 7.28}
{"Sample smiles": "CCN(CC)CCCNC(=O)Nc1cc(Oc2ccc(NC(=O)C3(C(=O)Nc4ccc(F)cc4)CC3)cc2C)ccn1", "Test readout": "pIC50", "Experimental result": 6.62}
{"Sample smiles": "CN(C)CC1CCN(C(=O)Nc2cc(Oc3ccc(NC(=O)C4(C(=O)Nc5ccc(F)cc5)CCC4)cc3F)ccn2)CC1", "Test readout": "pIC50", "Experimental result": 6.19}
